biological target: GABA-A receptor; alpha-3/beta-3/gamma-2 (Homo sapiens, UniProt P18507+P28472+P34903); assay: In vitro binding affinity against Gamma-aminobutyric acid A receptor, alpha 3 expressed in L(tk) cells by displacement of [3H]Ro-151788; format: cell-based
quantity.measured: Ki (nM)

[[record]]
sample_smiles = "Oc1c2cnc3c(c2nn1-c1ccc(OC(F)(F)F)cc1)CCCC3"
readout_value = 4.7

[[record]]
sample_smiles = "Oc1c2cnc3c(c2nn1-c1ccc(OC(F)F)cc1)CCCC3"
readout_value = 2.25

[[record]]
sample_smiles = "Oc1c2cnc3c(c2nn1-c1ccc(OC2CCC2)cc1)CCCC3"
readout_value = 2.55


---

target: GABA-A receptor; alpha-1/beta-3/gamma-2 (Homo sapiens, UniProt P14867+P18507+P28472); assay: In vitro binding affinity against gamma-aminobutyric acid A receptor, alpha 1 expressed in L(tk) cells by displacement of [3H]Ro-151788
Sequence (P14867 whole entry, one chain of several): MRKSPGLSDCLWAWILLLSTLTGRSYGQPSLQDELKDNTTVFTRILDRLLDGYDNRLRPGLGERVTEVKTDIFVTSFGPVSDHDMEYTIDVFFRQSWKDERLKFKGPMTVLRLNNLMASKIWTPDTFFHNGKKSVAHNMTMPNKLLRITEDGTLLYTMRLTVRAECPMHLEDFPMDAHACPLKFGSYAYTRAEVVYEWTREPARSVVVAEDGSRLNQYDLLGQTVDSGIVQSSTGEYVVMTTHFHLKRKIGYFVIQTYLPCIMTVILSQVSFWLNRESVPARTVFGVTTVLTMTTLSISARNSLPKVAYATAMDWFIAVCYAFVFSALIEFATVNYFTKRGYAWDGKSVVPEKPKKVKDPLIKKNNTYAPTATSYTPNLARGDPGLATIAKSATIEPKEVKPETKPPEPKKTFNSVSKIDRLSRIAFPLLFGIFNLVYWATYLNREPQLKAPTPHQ
quantity.measured: Ki

[[record]]
molecule = "O=C(Cc1cccnc1)N1CCC2N=Cc3c(nn(-c4ccc(Cl)cc4)c3O)C2C1 (centres undefined)"
readout_value = "3.15 nM"

[[record]]
molecule = "Oc1c2cnc3c(c2nn1-c1ccc(F)cc1)CCCC3"
readout_value = "0.29 nM"

[[record]]
molecule = "Oc1c2c(nn1-c1ccc(Cl)cc1)C1CN(CC3CC3)CCC1N=C2 (centres undefined)"
readout_value = "0.45 nM"

[[record]]
molecule = "O=c1c2c[nH]c3c(c-2nn1-c1ccc(Cl)cc1)CCCC3"
readout_value = "0.19 nM"


---

Target: GABA-A receptor; alpha-2/beta-3/gamma-2 (Homo sapiens, UniProt P18507+P28472+P47869)
Sequence (P18507 whole entry): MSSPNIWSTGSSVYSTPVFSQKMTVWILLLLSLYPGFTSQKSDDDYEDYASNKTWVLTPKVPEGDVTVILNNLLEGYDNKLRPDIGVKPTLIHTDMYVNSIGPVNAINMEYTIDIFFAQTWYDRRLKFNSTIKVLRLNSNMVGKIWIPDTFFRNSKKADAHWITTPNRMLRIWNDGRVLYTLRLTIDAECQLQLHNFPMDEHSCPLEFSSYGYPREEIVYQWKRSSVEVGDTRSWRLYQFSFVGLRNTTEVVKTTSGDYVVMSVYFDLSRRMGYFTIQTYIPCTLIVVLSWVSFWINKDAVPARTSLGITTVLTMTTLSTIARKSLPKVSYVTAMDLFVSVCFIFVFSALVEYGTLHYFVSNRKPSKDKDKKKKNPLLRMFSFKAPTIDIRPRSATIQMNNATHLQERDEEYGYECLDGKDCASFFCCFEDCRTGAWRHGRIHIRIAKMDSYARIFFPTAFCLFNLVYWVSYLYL
Sequence (P28472 whole entry): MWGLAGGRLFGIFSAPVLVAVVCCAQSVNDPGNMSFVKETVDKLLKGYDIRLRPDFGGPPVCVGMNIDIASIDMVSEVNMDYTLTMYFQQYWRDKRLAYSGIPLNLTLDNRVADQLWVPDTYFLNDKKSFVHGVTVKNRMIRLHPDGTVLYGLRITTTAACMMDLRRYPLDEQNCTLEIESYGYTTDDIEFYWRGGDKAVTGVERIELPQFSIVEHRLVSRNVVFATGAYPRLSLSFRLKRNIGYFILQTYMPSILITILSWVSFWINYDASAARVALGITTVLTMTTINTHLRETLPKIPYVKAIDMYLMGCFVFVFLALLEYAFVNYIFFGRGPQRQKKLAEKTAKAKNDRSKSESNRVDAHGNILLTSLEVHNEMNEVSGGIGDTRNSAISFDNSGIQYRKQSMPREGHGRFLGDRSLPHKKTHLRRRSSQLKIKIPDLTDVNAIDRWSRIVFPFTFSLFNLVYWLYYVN
Sequence (P47869 whole entry): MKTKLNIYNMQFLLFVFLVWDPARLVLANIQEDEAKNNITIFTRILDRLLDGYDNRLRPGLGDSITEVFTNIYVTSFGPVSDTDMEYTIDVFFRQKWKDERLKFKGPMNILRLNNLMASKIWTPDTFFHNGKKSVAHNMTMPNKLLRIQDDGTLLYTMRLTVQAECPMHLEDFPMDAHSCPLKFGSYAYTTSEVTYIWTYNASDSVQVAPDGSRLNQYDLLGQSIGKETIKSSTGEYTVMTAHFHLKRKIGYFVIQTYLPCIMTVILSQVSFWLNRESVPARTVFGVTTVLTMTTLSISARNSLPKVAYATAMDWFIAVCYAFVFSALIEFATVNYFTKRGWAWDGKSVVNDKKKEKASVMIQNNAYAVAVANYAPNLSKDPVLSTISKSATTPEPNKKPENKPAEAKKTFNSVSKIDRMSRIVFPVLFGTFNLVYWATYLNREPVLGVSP
Assay: In vitro displacement of [3H]Ro-151788 from human GABA-A receptor alpha-2-beta-3-gamma-2 subunits expressed in L(tk-) cells
quantity.measured: Ki (pM)

[[record]]
sample_smiles = "O=c1c2c[nH]c3c(c-2nn1-c1ccc(Cl)cc1)CCCC3"
quantity_measured = "Ki"
readout_value = 770


Reference source for all entries: ChEMBL document CHEMBL1149231
